- System: Escherichia coli TOP10
- measurementNotes: shrunken log2 fold change of peptide-encoding DNA abundance (4.5 h post-induction vs induction); higher = less antimicrobial activity (less host growth inhibition)
- conditionDetails: time post-induction: 4.5 h; library: site-saturation at positions 5, 18, 19, 20
measureName: shrunken log2 fold change
Please give only the number in your answer, with no unit.

Field: example entries. Status: answers known.
Consider RRIRKRPPRLPRPRPRPFPLPRP . Its measured shrunken log2 fold change is 0.289

For record RRIRTRPPRLPRPRPRPTWFPRP the listed shrunken log2 fold change is -0.0683

get_value(item= RRIRFRPPRLPRPRPRPQGSPRP , readout=shrunken log2 fold change) returns -0.0076

shrunken log2 fold change reported for this sequence RRIRFRPPRLPRPRPRPGYAPRP : -0.0137

Documented shrunken log2 fold change of RRIRFRPPRLPRPRPRPGHSPRP : -0.0168

For record RRIRRRPPRLPRPRPRPSQMPRP the listed shrunken log2 fold change is 0.0447

Please look at the following sequence next.
Sure, the documented shrunken log2 fold change for RRIRIRPPRLPRPRPRPGYVPRP is -0.181

---

- System: Escherichia coli TOP10
- measurementNotes: shrunken log2 fold change of peptide-encoding DNA abundance (4.5 h post-induction vs induction); higher = less antimicrobial activity (less host growth inhibition)
- conditionDetails: time post-induction: 4.5 h; library: site-saturation at positions 5, 18, 19, 20
measureName: shrunken log2 fold change
Could you keep your reply to the number by itself?

For RRIRARPPRLPRPRPRPFQNPRP the sequence record lists shrunken log2 fold change as -0.124

Moving on to another sequence below.
Input RRIRQRPPRLPRPRPRPPGSPRP . Output shrunken log2 fold change: 0.111

---

- Tested on: Escherichia coli TOP10
- measurementNotes: shrunken log2 fold change of peptide-encoding DNA abundance (4.5 h post-induction vs induction); higher = less antimicrobial activity (less host growth inhibition)
- conditionDetails: time post-induction: 4.5 h; library: site-saturation at positions 5, 18, 19, 20
measureName: shrunken log2 fold change
Reply: number alone, nothing else.

Quick note, shrunken log2 fold change for RRIRPRPPRLPRPRPRPAIDPRP landed at 1.19

Given item RRIRQRPPRLPRPRPRPEERPRP , the value recorded as its shrunken log2 fold change is 0.104

response.value for RRIRIRPPRLPRPRPRPKYEPRP (field: shrunken log2 fold change) = -0.83

Quick note, shrunken log2 fold change for RRIRMRPPRLPRPRPRPDKNPRP landed at 0.373

Please fill in: shrunken log2 fold change reported for RRIRMRPPRLPRPRPRPQIRPRP = -0.0442

---

- System: Escherichia coli TOP10;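 note: peptides expressed intracellularly from a pBAD plasmid library in pooled LB shake-flask culture, induced with 0.3% L-arabinose, DNA abundance read by NGS, three biological replicates, DESeq2 with apeglm shrinkage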
- measurementNotes: shrunken log2 fold change of peptide-encoding DNA abundance (4.5 h post-induction vs induction); higher = less antimicrobial activity (less host growth inhibition)
- conditionDetails: time post-induction: 4.5 h; library: site-saturation at positions 5, 18, 19, 20
measureName: shrunken log2 fold change
Please state the value as a number alone, without comment.

The reported shrunken log2 fold change of the sequence RRIRCRPPRLPRPRPRPSLGPRP was -0.0171

Reported shrunken log2 fold change ( RRIRVRPPRLPRPRPRPISWPRP ) = 0.18

The value of shrunken log2 fold change measured for the sequence RRIRFRPPRLPRPRPRPHAVPRP turned out to be -0.0464

Continuing:
Kindly note the recorded shrunken log2 fold change for RRIRYRPPRLPRPRPRPSDNPRP , which is -0.827

Lab note: measured shrunken log2 fold change of RRIRVRPPRLPRPRPRPKWKPRP was -0.0377
